// read-out IC50, gathered for UniProtKB P52333 from published studies

> print(dat)
                                    compound    reported.value
 1  CCC(C(=O)Nc1nccc2c(-c3nc(Nc4cccc(S(C)(=O)=O)c4F)ncc3C)c[nH]c12)N1CCN(C)CC1 (stereo in doubt)   500 to 10000 nM
 2  CC(=O)N1CCC(CC#N)(n2cc(-c3nc(-c4cnn(C)c4)cc4nccn34)cn2)C1 (stereo not shown)         > 1000 nM
 3  Cc1ccc(NC(=O)c2cccc(F)c2)cc1-c1ccc2[nH]c3ncncc3c2c1          ≤ 500 nM
 4  CN1CCn2c(-c3cc4nccn4c(-c4cnn(C(CC#N)C5CC5)c4)n3)cnc2C1 (stereo not shown)         > 1000 nM
 5  CCC(CC)n1cc(-c2nc(-c3cnn([C@@H]4CCC[C@H]4O)c3)cn3nccc23)cn1 (single isomer, unassigned)  1000 to 10000 nM
 6  CC1(C#N)CCCC1Nc1c(C(N)=O)cnn2cc(-c3ccccc3)cc12 (stereo not shown)            0.2 nM
 7  Cn1cc(-c2cc3ncc(F)n3c(-c3cnn(C4(CC#N)CN(S(=O)(=O)C(F)(F)F)C4)c3)n2)cn1    100 to 1000 nM
 8  CCC(C(=O)Nc1nccc2c(-c3nc(Nc4cn(C)nc4OC)ncc3C)c[nH]c12)N1CCN(C)CC1 (stereo not shown)          < 500 nM
 9  O=c1[nH]c2c(OC3CCOC3)nc(-n3cnc4ccc(F)cc43)nc2n1C1CCOCC1 (stereo not shown)    100 to 1000 nM
10  COc1ccc(-c2cc3c(N[C@@H]4CC[C@](C)(C(N)=O)C4(C)C)c(C(N)=O)cnn3c2)cn1            0.3 nM

Then there is this compound:
Quote UniProtKB P52333 IC50 for entry C=CC(=O)N1CCC[C@@H](Nc2nc(Nc3cnoc3)nc3ccsc23)C1 .
≤ 10 nM

----------
pIC50: −log10 of the molar value.
Collected literature values of pIC50 measured for Tyrosine-protein kinase JAK3 (Homo sapiens).

Solved entries:
> print(dat)
                         structure.notation                             target.system  reported.value
1  NC(=O)c1cnc2[nH]ccc2c1NN1[C@@H]2CC[C@H]1C[C@@H](O)C2  Tyrosine-protein kinase JAK3 (Homo sapiens)            7.81
2  COc1nn(C)cc1Nc1ncc(C)c(-c2c[nH]c3c(Nc4cn(C)nc4OC)nccc23)n1  Tyrosine-protein kinase JAK3 (Homo sapiens)          > 6.30
3  CN(c1ncnc2[nH]ccc12)C1CC2(C1)CN(C(=O)c1cnccn1)C2  Tyrosine-protein kinase JAK3 (Homo sapiens)          ≤ 5.00

Now take the following compound into account.
Enter recorded pIC50 with Tyrosine-protein kinase JAK3 (Homo sapiens) for N#Cc1ccc2ncn(-c3ncc4nc(Cl)n(C5CCOCC5)c4n3)c2c1 here.
> 7.00

----------
Kindly find below pIC50 information for Tyrosine-protein kinase JAK3 (Homo sapiens) taken from the literature.
pIC50: −log10 of the molar value.

Some solved cases for reference:
> print(dat)
                                   molecule  quantity.kind  reported.value
1  CCOC(=O)Cn1cc(Nc2ncc3ccn(C[C@@H](CC)C(C)C)c3n2)cn1          pIC50          > 7.00
2  O=C(Nc1nc2cccc([C@H]3CCC4(C3)CN(C(=O)[C@@H]3CC3(F)F)C4)n2n1)C1CC1 (single isomer, unassigned)          pIC50          < 5.00
3  CCc1cc(O)c(F)cc1-c1cc2[nH]ncc2c(NCc2ccccc2N(CC)S(C)(=O)=O)n1          pIC50            7.85
4  CC(=O)Nc1ccccc1-c1cc2c(N[C@@H]3CC[C@](C)(N)C3(C)C)c(C(N)=O)cnn2c1          pIC50            7.43
5  C=CC(=O)N1CC[C@@H](Nc2n[nH]c3nccc(Oc4ccc(Oc5ccccc5)cc4)c23)C1          pIC50    6.00 to 7.00
6  CCC(CC)n1cc(-c2nc(-c3cnn(CC(O)CO)c3)cn3nccc23)cn1 (stereo not shown)          pIC50    5.00 to 6.00

Field: next molecule
Look up and report measured pIC50 (Tyrosine-protein kinase JAK3 (Homo sapiens)) for the following molecule: CC(C)OC(=O)Cn1cc(Nc2ncc3ccn(C[C@@H](CCCl)C(C)C)c3n2)cn1
> 7.00

----------
Compiled IC50 measurements on Tyrosine-protein kinase JAK3 (Homo sapiens, UniProt P52333) taken from the literature.
quantity-kind: IC50 (nM)

P: CC(C)(O)Cc1cn2cc(Nc3ncc(Cl)c(NC4CCN(c5ccc(C#N)cn5)CC4)n3)ccc2n1
Q: Cc1cnc(Nc2ccc(N3CCC(N(C)CC4CC4)CC3)c(F)c2)nc1-c1cnn(C(C)C)c1
R: COc1ncc(-c2cc3c(N[C@@H]4CC[C@](C)(N)C4(C)C)c(C(N)=O)cnn3c2)cn1
S: CCc1cc(O)c(F)cc1-c1cc2[nH]nc(C(=O)NC)c2c(NCc2c(F)cccc2N(C)S(C)(=O)=O)n1
# rank_down: sort by IC50, max first Put the labels in the requested order and write them down.
P, S, Q, R
(P: 112 nM, S: 33.8 nM, Q: 23 nM, R: 8.4 nM)

----------
Literature IC50 values, system: Tyrosine-protein kinase JAK3 (Homo sapiens).

Worked examples follow.
> print(dat)
                                   compound                             target.system    reported.value
1  Cc1cccc(Oc2cc(Nc3cccc(NC(=O)/C=C/CN(C)C)n3)ncn2)c1  Tyrosine-protein kinase JAK3 (Homo sapiens)           ≤ 10 nM
2  CCc1cc(O)c(F)cc1-c1cc2[nH]nc(C(=O)NC)c2c(NCC(C)C)n1  Tyrosine-protein kinase JAK3 (Homo sapiens)           31.9 nM
3  C=CC(=O)N1CCC(Nc2cc(Nc3ccc(Oc4ccccc4)cc3)ncn2)C1 (centres unmarked)  Tyrosine-protein kinase JAK3 (Homo sapiens)  1000 to 10000 nM

Kindly review the next compound as well.
Report IC50 under test system Tyrosine-protein kinase JAK3 (Homo sapiens) for CO[C@H]1CNc2cc(Nc3ncc(C(N)=O)c(NC4C5CC6CC4CC(OC)(C6)C5)n3)ccc2OC1 (some centres unmarked) .
< 10 nM

----------
Field IC50: reported value for Tyrosine-protein kinase JAK3 (Homo sapiens, UniProt P52333); entries drawn from several documents.

// below: answered molecules
> print(dat)
                                   molecule                             target.system    reported.value
1  Oc1cccc(-c2nc3cnc(-n4cnc5ccc(F)cc54)nc3n2[C@@H]2CCOc3c(F)cccc32)c1  Tyrosine-protein kinase JAK3 (Homo sapiens, UniProt P52333)    100 to 1000 nM
2  CO[C@@H]1CNc2cc(Nc3ncc(C(N)=O)c(NC4CC4)n3)ccc2OC1  Tyrosine-protein kinase JAK3 (Homo sapiens, UniProt P52333)           < 10 nM
3  O=c1[nH]c2c(-c3ccc(Cl)cc3)nc(-n3cnc4ccc(F)cc43)nc2n1[C@@H]1CCOc2c(F)cccc21  Tyrosine-protein kinase JAK3 (Homo sapiens, UniProt P52333)    100 to 1000 nM
4  CC#CC(=O)N1CCC[C@@H](Nc2n[nH]c3nccc(Oc4ccc(C(=O)Nc5nc6ccccc6s5)cc4)c23)C1  Tyrosine-protein kinase JAK3 (Homo sapiens, UniProt P52333)    100 to 1000 nM
5  CC(C)Nc1c(C(N)=O)cnn2cc(-c3ccnc4ccccc34)cc12  Tyrosine-protein kinase JAK3 (Homo sapiens, UniProt P52333)            178 nM
6  C=CC(=O)N1CC[C@@H](Nc2n[nH]c3nccc(Oc4ccc(Cl)cc4)c23)C1  Tyrosine-protein kinase JAK3 (Homo sapiens, UniProt P52333)  1000 to 10000 nM
7  O=C(O)c1cccc(-c2nc3cnc(-n4cnc5ccc(F)cc54)nc3n2C2CCOCC2)c1  Tyrosine-protein kinase JAK3 (Homo sapiens, UniProt P52333)          < 100 nM
8  Cn1cc(-c2cc3nccn3c(-c3ccn(C4(CCF)CN(S(=O)(=O)C(F)(F)F)C4)c3)n2)cn1  Tyrosine-protein kinase JAK3 (Homo sapiens, UniProt P52333)      10 to 100 nM

Look up IC50 of CCNC(=O)c1ccc(Nc2nccc(-c3ccc(NC(=O)[C@@H]4CC4(F)F)nc3)n2)cc1 and report it.
219 nM

Indicate its recorded IC50; the molecule in question is CCC(CC)Cn1ccc2cnc(Nc3cnn(CC(=O)OC(C)C(C)O)c3)nc21 (stereo not shown)
< 100 nM
